target: Tyrosine-protein kinase BTK (Homo sapiens, UniProt Q06187); experiment: Inhibition of BTK autophosphorylation at Y223 in anti-IgM stimulated human MOLM13 cells after 4 hrs by chemiluminescence assay
Sequence (Q06187 whole entry): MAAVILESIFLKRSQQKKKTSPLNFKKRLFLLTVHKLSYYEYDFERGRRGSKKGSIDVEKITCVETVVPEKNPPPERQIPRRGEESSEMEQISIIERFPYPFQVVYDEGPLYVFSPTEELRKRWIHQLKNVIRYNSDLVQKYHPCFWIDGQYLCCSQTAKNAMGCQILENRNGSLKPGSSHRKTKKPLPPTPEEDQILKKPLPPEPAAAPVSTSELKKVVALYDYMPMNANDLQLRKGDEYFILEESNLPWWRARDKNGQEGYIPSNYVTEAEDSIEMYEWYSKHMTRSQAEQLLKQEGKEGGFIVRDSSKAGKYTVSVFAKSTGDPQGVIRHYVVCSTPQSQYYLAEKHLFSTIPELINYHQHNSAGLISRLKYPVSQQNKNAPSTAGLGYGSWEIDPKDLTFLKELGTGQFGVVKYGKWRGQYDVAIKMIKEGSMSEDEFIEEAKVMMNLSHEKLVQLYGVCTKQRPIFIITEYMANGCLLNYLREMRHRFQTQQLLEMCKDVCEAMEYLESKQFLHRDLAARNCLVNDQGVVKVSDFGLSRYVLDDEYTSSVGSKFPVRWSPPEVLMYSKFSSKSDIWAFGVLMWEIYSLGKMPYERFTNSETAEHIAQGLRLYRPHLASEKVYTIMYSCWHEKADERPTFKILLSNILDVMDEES
measured metric: EC50

1. C=CC(=O)Nc1cc(-n2c(=O)ccc3cnc4ccc(-n5cccn5)cc4c32)ccc1C | < 100 nM

====

Quick list: pIC50 per entry.
target: Tyrosine-protein kinase JAK3 (Homo sapiens, UniProt P52333); experiment: Inhibition of recombinant GST-tagged human JAK3 expressed in baculovirus expression system using poly (4:1 Glu, Tyr) as substrate preincubated for 1 hr followed by substrate addition measured after 1 hr by ADP-glo assay
pIC50: −log10 of the molar value.
measured metric: pIC50

1) C=CC(=O)Nc1cc(-n2c(=O)ccc3cnc4ccc(/C=C/c5ccccc5)cc4c32)ccc1C | 5.25
2) C=CC(=O)Nc1cc(-n2c(=O)ccc3cnc4ccc(-c5ccsc5)cc4c32)ccc1C | 7.41
3) C=CC(=O)N1CCc2ccc(-n3c(=O)ccc4cnc5ccc(-c6cnc7ccccc7c6)cc5c43)cc21 | 6.01
4) C=CC(=O)Nc1cc(-n2c(=O)ccc3cnc4ccc(-c5ccc6c(c5)OCCO6)cc4c32)ccc1C | 6.72
5) C=CC(=O)Nc1cc(-n2c(=O)ccc3cnc4ccc(-c5cnn(C)c5)cc4c32)ccc1C | 6.46
6) C=CC(=O)Nc1cccc(-n2c(=O)ccc3cnc4ccc(-c5cn[nH]c5)cc4c32)c1 | 6.65
7) C=CC(=O)N1CCc2ccc(-n3c(=O)ccc4cnc5ccc(-c6ccc(N7CCN(C)CC7)cc6)cc5c43)cc21 | 5.81
8) C=CC(=O)Nc1cccc(-n2c(=O)ccc3cnc4ccc(-c5ccc(N)nc5)cc4c32)c1 | 6.18
9) C=CC(=O)Nc1cc(-n2c(=O)ccc3cnc4ccc(-c5ccc(N)nc5)cc4c32)ccc1C | 6.75
10) C=CC(=O)Nc1cc(-n2c(=O)ccc3cnc4ccc(-c5ccc(NC(=O)NC)cc5)cc4c32)ccc1C | 6.66
11) C=CC(=O)Nc1cc(-n2c(=O)ccc3cnc4ccc(-c5ccccc5)cc4c32)ccc1C | 7.60
12) C=CC(=O)Nc1cc(-n2c(=O)ccc3cnc4ccc(-c5ccoc5)cc4c32)ccc1C | 7.76
13) C=CC(=O)Nc1cc(-n2c(=O)ccc3cnc4ccc(-c5ccc(COc6cccc(C(F)(F)F)c6)cc5)cc4c32)ccc1C | 6.19
14) C=CC(=O)Nc1cc(-n2c(=O)ccc3cnc4ccc(-c5cnc6ccccc6c5)cc4c32)ccc1C | 6.01

====

List of GI50 at 72 h values.
assay: Antiproliferative activity against mouse BA/F3 cells after 72 hrs by CellTiter-Glo assay; assay type: cell-based, BaF3
measured metric: GI50 at 72 h

1. C=CC(=O)Nc1cc(-n2c(=O)ccc3cnc4ccc(-n5cccn5)cc4c32)ccc1C | > 10 µM
2. C=CC(=O)N1CCC[C@@H](n2nc(-c3ccc(Oc4ccccc4)cc3)c3c(N)ncnc32)C1 [IBRUTINIB] | > 10 µM
3. CCC(=O)Nc1cc(-n2c(=O)ccc3cnc4ccc(-n5cccn5)cc4c32)ccc1C | > 10 µM

====

molecular target: Tyrosine-protein kinase BTK (Homo sapiens, UniProt Q06187); test: Irreversible inhibition of recombinant full length His-tagged human BTK expressed in baculovirus expression system using poly (4:1 Glu, Tyr) as substrate preincubated for 2 to 60 mins followed by substrate addition measured after 1 hr by ADP-glo assay
measured metric: Ki (nM)

1) C=CC(=O)Nc1cc(-n2c(=O)ccc3cnc4ccc(-n5cccn5)cc4c32)ccc1C | 97
2) C=CC(=O)Nc1cc(-n2c(=O)ccc3cnc4ccc(-c5cn[nH]c5)cc4c32)ccc1C | 2

====

target: Tyrosine-protein kinase BTK (Homo sapiens, UniProt Q06187); assay: Inhibition of BTK autophosphorylation at Y223 in anti-IgM stimulated human Ramos cells after 4 hrs by chemiluminescence assay; format: cell-based
pEC50: −log10 of the molar value.
measured metric: pEC50

1) C=CC(=O)Nc1cc(-n2c(=O)ccc3cnc4ccc(-n5cccn5)cc4c32)ccc1C | > 7.00

====

target: Cytoplasmic tyrosine-protein kinase BMX (Homo sapiens, UniProt P51813); test: Inhibition of recombinant full length His-tagged human BMX expressed in baculovirus expression system using poly (4:1 Glu, Tyr) as substrate preincubated for 1 hr followed by substrate addition measured after 1 hr by ADP-glo assay
Sequence (P51813 whole entry): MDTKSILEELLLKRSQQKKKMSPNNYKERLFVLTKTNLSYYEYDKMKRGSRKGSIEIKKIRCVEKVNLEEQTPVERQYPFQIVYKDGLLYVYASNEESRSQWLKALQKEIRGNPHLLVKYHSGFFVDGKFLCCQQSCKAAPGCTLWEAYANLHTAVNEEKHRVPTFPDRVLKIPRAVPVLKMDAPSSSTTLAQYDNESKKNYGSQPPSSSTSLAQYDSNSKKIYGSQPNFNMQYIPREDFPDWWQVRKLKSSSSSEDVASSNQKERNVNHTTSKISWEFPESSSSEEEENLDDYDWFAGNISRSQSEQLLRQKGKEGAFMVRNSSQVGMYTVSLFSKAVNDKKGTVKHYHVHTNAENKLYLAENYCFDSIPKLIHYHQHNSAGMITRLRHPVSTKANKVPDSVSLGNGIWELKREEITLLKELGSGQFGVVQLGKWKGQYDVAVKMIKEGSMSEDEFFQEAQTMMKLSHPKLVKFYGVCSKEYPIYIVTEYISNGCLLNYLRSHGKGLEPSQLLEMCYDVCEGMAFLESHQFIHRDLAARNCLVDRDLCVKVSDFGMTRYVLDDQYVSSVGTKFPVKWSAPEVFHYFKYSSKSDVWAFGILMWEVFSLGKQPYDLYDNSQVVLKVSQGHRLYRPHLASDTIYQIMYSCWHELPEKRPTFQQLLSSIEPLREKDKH
pIC50: −log10 of the molar value.
measured metric: pIC50

1) C=CC(=O)Nc1cc(-n2c(=O)ccc3cnc4ccc(-n5cccn5)cc4c32)ccc1C | 7.08

====

pIC50 values for the compounds below.
target: Tyrosine-protein kinase Blk (Homo sapiens, UniProt P51451); experiment: Inhibition of recombinant full length His-tagged human BLK expressed in baculovirus expression system using poly (4:1 Glu, Tyr) as substrate preincubated for 1 hr followed by substrate addition measured after 1 hr by ADP-glo assay
Sequence (P51451 whole entry): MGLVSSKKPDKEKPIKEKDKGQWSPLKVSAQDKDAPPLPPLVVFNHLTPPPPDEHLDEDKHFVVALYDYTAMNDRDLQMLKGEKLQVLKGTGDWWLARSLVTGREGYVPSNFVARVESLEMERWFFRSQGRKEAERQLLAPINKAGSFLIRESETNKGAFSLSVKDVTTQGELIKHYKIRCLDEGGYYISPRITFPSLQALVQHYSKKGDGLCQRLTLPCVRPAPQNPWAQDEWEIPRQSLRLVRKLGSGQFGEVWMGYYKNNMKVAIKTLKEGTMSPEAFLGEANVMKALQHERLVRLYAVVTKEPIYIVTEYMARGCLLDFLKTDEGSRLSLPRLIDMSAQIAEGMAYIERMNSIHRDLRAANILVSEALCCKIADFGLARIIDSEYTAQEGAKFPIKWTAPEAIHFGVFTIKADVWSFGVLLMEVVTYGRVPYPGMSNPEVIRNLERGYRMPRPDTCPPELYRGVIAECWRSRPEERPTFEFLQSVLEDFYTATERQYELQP
pIC50: −log10 of the molar value.
measured metric: pIC50

1) C=CC(=O)Nc1cc(-n2c(=O)ccc3cnc4ccc(-c5ccoc5)cc4c32)ccc1C | 5.68
2) C=CC(=O)Nc1cc(-n2c(=O)ccc3cnc4ccc(/C=C/c5ccccc5)cc4c32)ccc1C | 6.22
3) C=CC(=O)Nc1cc(-n2c(=O)ccc3cnc4ccc(-c5ccc(N)nc5)cc4c32)ccc1C | 6.75
4) C=CC(=O)N1CCc2ccc(-n3c(=O)ccc4cnc5ccc(-c6cnc7ccccc7c6)cc5c43)cc21 | 6.72
5) C=CC(=O)Nc1cc(-n2c(=O)ccc3cnc4ccc(-c5ccsc5)cc4c32)ccc1C | 6.47
6) C=CC(=O)Nc1cc(-n2c(=O)ccc3cnc4ccc(-c5cnc6ccccc6c5)cc4c32)ccc1C | 6.53
7) C=CC(=O)Nc1cccc(-n2c(=O)ccc3cnc4ccc(-c5ccc(N)nc5)cc4c32)c1 | 6.47
8) C=CC(=O)Nc1cc(-n2c(=O)ccc3cnc4ccc(-c5ccc(COc6cccc(C(F)(F)F)c6)cc5)cc4c32)ccc1C | 5.69
9) C=CC(=O)Nc1cc(-n2c(=O)ccc3cnc4ccc(-c5cnn(C)c5)cc4c32)ccc1C | 6.47
10) C=CC(=O)Nc1cc(-n2c(=O)ccc3cnc4ccc(-c5ccc6c(c5)OCCO6)cc4c32)ccc1C | 6.80
11) C=CC(=O)Nc1cc(-n2c(=O)ccc3cnc4ccc(-c5ccc(NC(=O)NC)cc5)cc4c32)ccc1C | 5.95
12) C=CC(=O)Nc1cccc(-n2c(=O)ccc3cnc4ccc(-c5cn[nH]c5)cc4c32)c1 | 6.53
13) C=CC(=O)N1CCc2ccc(-n3c(=O)ccc4cnc5ccc(-c6ccc(S(=O)(=O)NC(C)(C)C)cc6)cc5c43)cc21 | 7.08

====

Measured pIC50 by item
Target: Tyrosine-protein kinase JAK3 (Homo sapiens, UniProt P52333)
Sequence (P52333 whole entry): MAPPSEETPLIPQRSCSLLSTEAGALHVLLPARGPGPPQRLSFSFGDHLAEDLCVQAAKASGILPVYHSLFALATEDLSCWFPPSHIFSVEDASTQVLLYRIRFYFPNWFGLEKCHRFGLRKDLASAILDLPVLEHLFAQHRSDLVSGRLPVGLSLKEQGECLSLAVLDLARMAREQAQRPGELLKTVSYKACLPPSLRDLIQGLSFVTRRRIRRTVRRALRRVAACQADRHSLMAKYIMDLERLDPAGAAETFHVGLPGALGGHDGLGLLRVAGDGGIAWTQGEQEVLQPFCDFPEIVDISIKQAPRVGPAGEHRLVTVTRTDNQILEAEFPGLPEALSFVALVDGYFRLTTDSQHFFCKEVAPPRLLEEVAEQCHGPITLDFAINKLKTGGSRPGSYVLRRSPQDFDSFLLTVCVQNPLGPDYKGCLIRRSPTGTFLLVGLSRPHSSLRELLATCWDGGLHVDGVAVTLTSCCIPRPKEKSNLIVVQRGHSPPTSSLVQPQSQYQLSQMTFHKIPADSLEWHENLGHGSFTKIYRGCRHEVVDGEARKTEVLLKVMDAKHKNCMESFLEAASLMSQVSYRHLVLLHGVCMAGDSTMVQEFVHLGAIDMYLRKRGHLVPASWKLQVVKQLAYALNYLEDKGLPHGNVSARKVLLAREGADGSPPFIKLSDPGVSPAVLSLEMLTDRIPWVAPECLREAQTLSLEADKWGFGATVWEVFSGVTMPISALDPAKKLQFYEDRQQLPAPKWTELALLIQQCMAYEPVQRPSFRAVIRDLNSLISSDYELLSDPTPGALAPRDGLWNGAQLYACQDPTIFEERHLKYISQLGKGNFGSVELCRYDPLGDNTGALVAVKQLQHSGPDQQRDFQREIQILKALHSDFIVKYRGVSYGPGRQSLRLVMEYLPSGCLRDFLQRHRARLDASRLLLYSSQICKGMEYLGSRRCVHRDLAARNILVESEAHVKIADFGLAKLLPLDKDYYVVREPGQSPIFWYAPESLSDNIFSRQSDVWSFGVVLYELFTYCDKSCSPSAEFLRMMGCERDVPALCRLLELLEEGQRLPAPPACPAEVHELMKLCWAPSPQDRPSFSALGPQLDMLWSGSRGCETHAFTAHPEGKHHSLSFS
Experiment: Inhibition of recombinant GST-tagged human JAK3 expressed in baculovirus expression system using poly (4:1 Glu, Tyr) as substrate preincubated for 1 hr followed by substrate addition measured after 1 hr by ADP-glo assay
pIC50: −log10 of the molar value.
measured metric: pIC50

1) C=CC(=O)N1CCc2ccc(-n3c(=O)ccc4cnc5ccc(-c6ccc(S(=O)(=O)NC(C)(C)C)cc6)cc5c43)cc21 | < 5.00
2) CCC(=O)Nc1cc(-n2c(=O)ccc3cnc4ccc(-n5cccn5)cc4c32)ccc1C | < 5.00
3) C=CC(=O)Nc1cc(-n2c(=O)ccc3cnc4ccc(-n5cccn5)cc4c32)ccc1C | < 5.00
